Please consider the recorded IC50 for HPK1 (MAP4K1) (Homo sapiens, UniProt Q92918) in what follows.

{"compound": "CNc1ncc2c(n1)N1CCN=C1C(c1cc(NC(=O)c3cccc(C(F)(F)F)c3)ncc1C)=C2 [Compound 190]", "measured_result": "100 to 10000 nM"}
{"compound": "Cc1ccc(Nc2ncc3c(n2)N2CCN=C2C(c2cc(NC(=O)c4cc(C(F)(F)F)ccn4)ccc2C)=C3)cc1F [Compound 228]", "measured_result": "< 100 nM"}
{"compound": "CNc1ncc2c(n1)N1CCN=C1C(c1ccc(C(=O)Nc3cc(C(F)(F)F)ccn3)cc1C)=C2 [Compound 276]", "measured_result": "100 to 10000 nM"}

Switching to the query record.
# input Please state recorded IC50 (tested on HPK1 (MAP4K1) (Homo sapiens, UniProt Q92918)) of CC(=O)Nc1ncc2c(n1)N1CCN=C1C(c1cc(NC(=O)c3cc(C(F)(F)F)ccn3)ccc1C)=C2 [Compound 118]
# Sequence (Q92918 whole entry, species assumed): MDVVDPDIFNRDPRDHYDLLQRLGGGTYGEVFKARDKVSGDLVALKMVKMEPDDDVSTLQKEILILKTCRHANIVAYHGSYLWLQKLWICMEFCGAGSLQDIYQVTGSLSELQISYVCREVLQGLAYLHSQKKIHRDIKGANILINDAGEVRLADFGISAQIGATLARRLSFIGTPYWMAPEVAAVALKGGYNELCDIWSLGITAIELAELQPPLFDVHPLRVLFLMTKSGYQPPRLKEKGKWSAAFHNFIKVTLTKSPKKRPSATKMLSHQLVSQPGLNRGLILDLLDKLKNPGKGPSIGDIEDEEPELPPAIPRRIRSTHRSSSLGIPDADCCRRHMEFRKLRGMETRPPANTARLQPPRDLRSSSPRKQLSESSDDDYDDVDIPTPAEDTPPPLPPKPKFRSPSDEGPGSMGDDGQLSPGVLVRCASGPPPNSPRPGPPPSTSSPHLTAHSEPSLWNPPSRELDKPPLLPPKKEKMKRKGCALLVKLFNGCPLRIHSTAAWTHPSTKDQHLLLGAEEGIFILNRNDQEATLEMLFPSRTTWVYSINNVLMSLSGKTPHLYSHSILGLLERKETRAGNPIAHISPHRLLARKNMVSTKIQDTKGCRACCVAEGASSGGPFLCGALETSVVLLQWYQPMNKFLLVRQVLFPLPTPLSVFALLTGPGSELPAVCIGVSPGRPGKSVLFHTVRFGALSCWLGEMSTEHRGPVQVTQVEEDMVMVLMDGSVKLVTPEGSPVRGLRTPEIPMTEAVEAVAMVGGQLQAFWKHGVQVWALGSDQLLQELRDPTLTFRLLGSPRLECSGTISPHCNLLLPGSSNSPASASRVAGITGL
# output 100 to 10000 nM

---

- Tested on: P-glycoprotein (MDR1)
- experimental_protocol: in vitro
- condition_description: dog, MDCK-MDR1
reported_property: efflux ratio at 120 min
Just the number, please, no unit after it.

# input Entry Cc1ccc(NC(=O)c2cc(C(F)(F)F)ccn2)cc1C1=Cc2cnc(NC3CCOCC3)nc2N2CCN=C12 : reported efflux ratio at 120 min = ?
# output 1.6

---

- measurement_target: UniProtKB P30530
- Sequence (P30530 26-894): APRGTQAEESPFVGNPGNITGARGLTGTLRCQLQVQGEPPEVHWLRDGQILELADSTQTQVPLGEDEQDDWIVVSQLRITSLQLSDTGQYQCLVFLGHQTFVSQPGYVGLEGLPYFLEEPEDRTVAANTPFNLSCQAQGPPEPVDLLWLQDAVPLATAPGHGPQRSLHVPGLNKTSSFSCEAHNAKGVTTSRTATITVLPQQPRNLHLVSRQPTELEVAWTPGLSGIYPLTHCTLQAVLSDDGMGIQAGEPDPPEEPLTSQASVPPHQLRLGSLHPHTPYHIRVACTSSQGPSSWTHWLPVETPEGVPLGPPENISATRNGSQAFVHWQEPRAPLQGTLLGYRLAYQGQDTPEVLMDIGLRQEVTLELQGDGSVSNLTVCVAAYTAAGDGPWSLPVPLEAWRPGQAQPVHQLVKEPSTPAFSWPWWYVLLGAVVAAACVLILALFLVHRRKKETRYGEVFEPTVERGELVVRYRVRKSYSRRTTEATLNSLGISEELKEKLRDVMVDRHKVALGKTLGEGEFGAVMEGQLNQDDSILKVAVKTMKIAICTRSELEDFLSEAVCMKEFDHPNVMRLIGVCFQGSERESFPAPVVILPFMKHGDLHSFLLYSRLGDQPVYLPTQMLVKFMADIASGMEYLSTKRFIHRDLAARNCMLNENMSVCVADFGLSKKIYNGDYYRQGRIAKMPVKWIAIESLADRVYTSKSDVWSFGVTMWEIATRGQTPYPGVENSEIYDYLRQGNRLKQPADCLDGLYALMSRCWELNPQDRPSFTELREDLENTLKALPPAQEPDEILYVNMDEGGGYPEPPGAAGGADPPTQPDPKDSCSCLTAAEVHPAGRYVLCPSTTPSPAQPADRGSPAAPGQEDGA
- experimental_protocol: AXL kinase mobility shift assay
- Type: biochemical
reported_property: IC50

Completed entries (count: 3):
{"molecule": "CNc1ncc2c(n1)N1CCN=C1C(c1ccc(C(=O)Nc3cc(C(F)(F)F)ccn3)c(F)c1)=C2 [Compound 270]", "IC50": "> 10 µM"}
{"molecule": "CNc1ncc2c(n1)N1CCN=C1C(c1c(C)ccc(NS(=O)(=O)c3c(Cl)cccc3Cl)c1F)=C2 [Compound 296]", "IC50": "> 10 µM"}
{"molecule": "CNc1ncc2c(n1)N1CCN=C1C(c1cc(NC(=O)Nc3cc(C(F)(F)F)ccc3Cl)c(F)cc1C)=C2 [Compound 335]", "IC50": "> 10 µM"}

# input Entry CNc1ncc2c(n1)N1CCN=C1C(Oc1ccc(NC(=O)C3(C(=O)Nc4ccc(F)cc4)CC3)cc1)=C2 [Compound 345] : reported IC50 = ?
# output 0.1 to 10 µM

---

pIC50: −log10 of the molar value.
Please consider the recorded pIC50 for c-Kit (Homo sapiens, UniProt P10721) in what follows.

Completed entries (count: 5):
{"molecular_string": "CNc1ncc2c(n1)N1CCN=C1C(c1cc(NC(=O)NCCC(F)(F)F)c(F)cc1C)=C2", "measured_result": "5.00 to 7.00"}
{"molecular_string": "CNc1ncc2c(n1)N1CCN=C1C(c1cc(NC(=O)c3cc(C(F)(F)F)ccn3)ccc1C)=C2", "measured_result": "> 7.00"}
{"molecular_string": "CCNc1ncc2c(n1)N1CCN=C1C(c1cc(NC(=O)Nc3ccccc3Cl)c(F)cc1C)=C2", "measured_result": "> 7.00"}
{"molecular_string": "CNc1ncc2c(n1)N1CCN=C1C(c1c(C)ccc(NC(=O)c3cc(C(F)(F)F)ccn3)c1F)=C2", "measured_result": "5.00 to 7.00"}
{"molecular_string": "Cn1cc(Nc2ncc3c(n2)N2CCN=C2C(c2ccc(Cl)cc2Cl)=C3)cn1", "measured_result": "> 7.00"}

# input Entry CNc1ncc2c(n1)N1CCN=C1C(c1cc(NC(=O)Nc3ccccc3)c(F)cc1Br)=C2 : reported pIC50 = ?
# output > 7.00

# input Entry Cc1ccc(NC(=O)c2cc(C(C)(C)F)ccn2)cc1C1=Cc2cnc(Nc3cnn(C)c3)nc2N2CCN=C12 : reported pIC50 = ?
# output > 7.00

---

- System: P-glycoprotein (MDR1)
- experimental_protocol: in vitro
- condition_description: dog, MDCK-MDR1
reported_property: Papp B→A at 120 min (×10⁻⁶ cm/s)
Give just the numeric value; ×10⁻⁶ cm/s need not be written.

# input Entry Cc1ccc(NC(=O)c2cc(C(F)(F)F)ccn2)cc1C1=Cc2cnc(NC3CCOCC3)nc2N2CCN=C12 : reported Papp B→A at 120 min = ?
# output 36.9

---

Quick reference: IC50 of the listed items.
- measurement_target: SRC (Homo sapiens, UniProt P12931)
- Construct: purchased Carna Biosciences
- Sequence (P12931 whole entry): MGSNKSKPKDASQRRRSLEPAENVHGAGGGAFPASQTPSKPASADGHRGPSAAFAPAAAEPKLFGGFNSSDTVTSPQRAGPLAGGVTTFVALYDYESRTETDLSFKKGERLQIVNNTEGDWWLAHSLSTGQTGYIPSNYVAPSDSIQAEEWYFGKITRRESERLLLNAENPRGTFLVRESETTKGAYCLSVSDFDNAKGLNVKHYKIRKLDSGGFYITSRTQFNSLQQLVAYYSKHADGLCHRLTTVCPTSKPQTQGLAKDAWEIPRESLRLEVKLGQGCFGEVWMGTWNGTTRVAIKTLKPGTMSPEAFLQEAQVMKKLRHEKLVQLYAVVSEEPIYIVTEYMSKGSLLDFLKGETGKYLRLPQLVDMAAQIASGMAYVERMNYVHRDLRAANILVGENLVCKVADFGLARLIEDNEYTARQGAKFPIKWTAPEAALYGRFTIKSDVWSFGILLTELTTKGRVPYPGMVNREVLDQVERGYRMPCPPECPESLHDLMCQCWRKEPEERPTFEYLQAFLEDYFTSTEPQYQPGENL
- experimental_protocol: In vitro kinase assay, SRC (Caliper EZ Reader conversion)
- Format: biochemical
- condition_description: read-out: SRC IC50

Completed entries (count: 6):
{"molecular_string": "COc1nc(N2CCNCC2)ccc1Nc1ncc2c(n1)N1CCN=C1C(c1ccc(Cl)cc1)=C2", "measured_result": "0.1 to 10 µM"}
{"molecular_string": "COc1ccccc1Nc1ncc2c(n1)N1CCCN=C1C(c1ccccc1Cl)=C2", "measured_result": "0.1 to 10 µM"}
{"molecular_string": "Fc1cc(N2CCNCC2)ccc1Nc1ncc2c(n1)N1CCN=C1C=C2", "measured_result": "> 10 µM"}
{"molecular_string": "COc1cccc(Nc2ncc3c(n2)N2CCCN=C2C(c2ccccc2Cl)=C3)c1", "measured_result": "0.1 to 10 µM"}
{"molecular_string": "C1=C(c2ccccc2)C2=NCCN2c2nc(Nc3ccncc3)ncc21", "measured_result": "0.1 to 10 µM"}
{"molecular_string": "Fc1ccccc1Nc1ncc2c(n1)N1CCN=C1C(c1ccc(Cl)cc1Cl)=C2", "measured_result": "0.1 to 10 µM"}

# input Entry CNc1ncc2c(n1)N1CCCN=C1C(c1ccc(-n3ccnc(C)c3=O)cc1)=C2 : reported IC50 = ?
# output > 10 µM

# input Entry Cn1nccc1Nc1ncc2c(n1)N1CCN=C1C(c1ccccc1Cl)=C2 : reported IC50 = ?
# output > 10 µM

# input Entry CNc1ncc2c(n1)N1CCCN=C1C(c1ccc(-n3ccnc(C)c3=O)cc1Cl)=C2 : reported IC50 = ?
# output > 10 µM

# input Entry Clc1ccccc1C1=Cc2cnc(NC3COC3)nc2N2CCN=C12 : reported IC50 = ?
# output > 10 µM

# input Entry Clc1cccc(Cl)c1C1=Cc2cnc(NCCC3CCNCC3)nc2N2CCN=C12 : reported IC50 = ?
# output 0.1 to 10 µM

# input Entry Fc1cc(N2CCNCC2)ccc1Nc1ncc2c(n1)N1CCN=C1C(c1ccccc1)=C2 : reported IC50 = ?
# output 0.1 to 10 µM

# input Entry CCN1CCN(c2ccc(Nc3ncc4c(n3)N3CCN=C3C(c3ccc(Cl)cc3Cl)=C4)c(F)c2)CC1 : reported IC50 = ?
# output < 0.1 µM

# input Entry Clc1ccc(C2=Cc3cnc(NC4CCOCC4)nc3N3CCN=C23)c(Cl)c1 : reported IC50 = ?
# output > 10 µM

---

Please consider the recorded IC50 for HPK1 (MAP4K1) (Homo sapiens) in what follows.

{"molecular_string": "Cc1ccc(NC(=O)c2cc(C(F)(F)F)ccn2)cc1C1=Cc2cnc(NS(C)(=O)=O)nc2N2CCN=C12", "measurement_target": "HPK1 (MAP4K1) (Homo sapiens)", "IC50": "> 10000 nM"}

# input Entry CNc1ncc2c(n1)N1C(=NC[C@@H]1C)C(c1cc(NC(=O)c3cc(C(F)(F)F)ccn3)ccc1C)=C2 : reported IC50 = ?
# output < 100 nM

# input Entry CNc1ncc2c(n1)N1CCN=C1C(c1cc(NC(=O)c3cc(C#N)ccn3)ccc1C)=C2 : reported IC50 = ?
# output 100 to 10000 nM

# input Entry CNc1ncc2c(n1)N1CCN=C1C(c1cc(NC(=O)C3(C(=O)Nc4ccc(F)cc4)CC3)ccc1Cl)=C2 : reported IC50 = ?
# output 100 to 10000 nM

# input Entry CNc1ncc2c(n1)N1CCN=C1C(c1cc(NC(=O)C3(C(=O)Nc4ccc(F)cc4)CC3)ccc1F)=C2 : reported IC50 = ?
# output < 100 nM

# input Entry Cc1cnccc1Nc1ncc2c(n1)N1CCN=C1C(c1cc(NC(=O)c3cc(C(F)(F)F)ccn3)ccc1C)=C2 : reported IC50 = ?
# output < 100 nM

# input Entry CNc1ncc2c(n1)N1CCN=C1C(c1cc(NC(=O)c3cc(C(F)(F)F)ncn3)ccc1C)=C2 : reported IC50 = ?
# output 100 to 10000 nM

---

- Test system: P-glycoprotein (MDR1)
- experimental_protocol: in vitro
- condition_description: dog, MDCK-MDR1
reported_property: Papp A→B at 120 min (×10⁻⁶ cm/s)
Give just the numeric value; ×10⁻⁶ cm/s need not be written.

# input Entry Cc1ccc(NC(=O)c2cc(C(F)(F)F)ccn2)cc1C1=Cc2cnc(NC3CCOCC3)nc2N2CCN=C12 : reported Papp A→B at 120 min = ?
# output 22.8

---

Please consider the recorded IC50 for HPK1 (MAP4K1) (Homo sapiens) in what follows.

{"compound": "Cc1ccc(NC(=O)c2cc(C(F)(F)F)ccn2)cc1C1=Cc2cnc(Nc3cccnc3)nc2N2CCN=C12 [Compound 215]", "reported_property": "IC50", "measured_result": "< 100 nM"}

# input Please state recorded IC50 (tested on HPK1 (MAP4K1) (Homo sapiens)) of CNc1ncc2c(n1)N1CCN=C1C(c1cc(NC(=O)c3nccc(C(F)(F)F)c3Cl)ccc1C)=C2 [Compound 152]
# output 100 to 10000 nM

# input Please state recorded IC50 (tested on HPK1 (MAP4K1) (Homo sapiens)) of Cc1ccc(NC(=O)c2cc(C(F)(F)F)ccn2)cc1C1=Cc2cnc(NCC(C)(C)O)nc2N2CCN=C12 [Compound 113]
# output < 100 nM

# input Please state recorded IC50 (tested on HPK1 (MAP4K1) (Homo sapiens)) of CNc1nc(C)c2c(n1)N1CCN=C1C(c1cc(NC(=O)c3cc(C(F)(F)F)ccn3)ccc1C)=C2 [Compound 122]
# output > 10000 nM

# input Please state recorded IC50 (tested on HPK1 (MAP4K1) (Homo sapiens)) of Cc1ccc(NC(=O)c2cc(C(F)(F)F)ccn2)cc1C1=Cc2cnc(NC3CNC3)nc2N2CCN=C12 [Compound 116]
# output 100 to 10000 nM

# input Please state recorded IC50 (tested on HPK1 (MAP4K1) (Homo sapiens)) of Cc1ccc(NC(=O)c2cc(C(F)(F)F)ccn2)cc1C1=Cc2cnc(Nc3ccncc3)nc2N2CCN=C12 [Compound 214]
# output < 100 nM

# input Please state recorded IC50 (tested on HPK1 (MAP4K1) (Homo sapiens)) of Cc1cnc(Nc2ncc3c(n2)N2CCN=C2C(c2cc(NC(=O)c4cc(C(F)(F)F)ccn4)ccc2C)=C3)s1 [Compound 232]
# output < 100 nM

# input Please state recorded IC50 (tested on HPK1 (MAP4K1) (Homo sapiens)) of CNc1ncc2c(n1)N1CCN=C1C(c1cc(NC(=O)NCCC(C)(C)C)c(F)cc1C)=C2 [Compound 317]
# output 100 to 10000 nM

# input Please state recorded IC50 (tested on HPK1 (MAP4K1) (Homo sapiens)) of Cc1ccc(NC(=O)c2cc(C(F)(F)F)ccn2)cc1C1=Cc2cnc(Nc3cccnc3C)nc2N2CCN=C12 [Compound 209]
# output < 100 nM

# input Please state recorded IC50 (tested on HPK1 (MAP4K1) (Homo sapiens)) of Clc1ccccc1C1=Cc2cnc(Nc3ccc(N4CCOCC4)nc3)nc2N2CCN=C12 [Compound 100]
# output 100 to 10000 nM

Where these numbers come from: patent US20230303570A1
